- subjectOfTest: androgen receptor (Homo sapiens)
- Sequence (P10275 with tags, fused parts or gaps DUP590-628/H875Y, form open): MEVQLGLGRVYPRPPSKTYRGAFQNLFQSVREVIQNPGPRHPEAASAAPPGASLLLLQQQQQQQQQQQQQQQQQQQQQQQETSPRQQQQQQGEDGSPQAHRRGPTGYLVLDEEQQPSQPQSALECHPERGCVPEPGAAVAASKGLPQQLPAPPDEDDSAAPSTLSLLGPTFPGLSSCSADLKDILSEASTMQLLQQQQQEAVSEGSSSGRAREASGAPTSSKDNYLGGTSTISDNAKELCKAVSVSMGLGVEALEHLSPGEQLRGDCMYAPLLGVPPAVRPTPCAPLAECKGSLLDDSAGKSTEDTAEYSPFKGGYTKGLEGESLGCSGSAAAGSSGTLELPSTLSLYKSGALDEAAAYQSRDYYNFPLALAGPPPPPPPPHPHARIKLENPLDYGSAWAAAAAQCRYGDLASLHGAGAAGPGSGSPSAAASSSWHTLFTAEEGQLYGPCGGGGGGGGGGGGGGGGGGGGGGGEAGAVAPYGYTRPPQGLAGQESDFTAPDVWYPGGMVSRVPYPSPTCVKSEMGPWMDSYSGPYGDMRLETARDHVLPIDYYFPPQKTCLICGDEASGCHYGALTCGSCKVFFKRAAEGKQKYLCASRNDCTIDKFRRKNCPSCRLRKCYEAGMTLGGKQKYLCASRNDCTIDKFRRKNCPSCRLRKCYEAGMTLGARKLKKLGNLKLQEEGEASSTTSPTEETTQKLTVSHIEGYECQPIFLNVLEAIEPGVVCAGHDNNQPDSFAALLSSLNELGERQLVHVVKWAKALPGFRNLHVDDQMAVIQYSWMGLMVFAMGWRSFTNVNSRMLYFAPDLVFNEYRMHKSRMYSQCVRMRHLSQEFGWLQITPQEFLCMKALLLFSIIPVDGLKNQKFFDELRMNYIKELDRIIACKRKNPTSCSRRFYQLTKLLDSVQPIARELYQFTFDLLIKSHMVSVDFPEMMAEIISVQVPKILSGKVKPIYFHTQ
- methodNotes: PSA promoter luciferase reporter assay in 103E cells (AR transcriptional activity)
- experimentalContext: 50 μM, 20 h
propertyMeasured: inhibition of AR activity

COc1c(C(C)C)cc2c(c1O)[C@@]1(C)CCCC(C)(C)[C@@H]1CC2=O [Compound 1] = approximately 70%
C=C1CC[C@@H]2[C@](C)(CCC[C@]2(C)C(=O)O)[C@H]1CC/C(C)=C/CO [Compound 8, isocupressic acid] = 87%
CC(C)C1=C[C@]2(O)CC[C@H]3C(C)(C)CCC[C@]3(C)C2=CC1=O [Compound 6] = approximately 70%
